- SYSTEM NAME: human GLP-1 receptor (human, UniProt P43220 24-463)
- PROCEDURE DETAILS: cell-based or functional assay

BINDER | cAMP Emax (1.0% HSA) [%]
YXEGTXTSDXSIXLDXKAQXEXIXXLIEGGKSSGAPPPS (Aib2, αMeF(2F)6, 4Pal10, αMeL13, Orn16, Aib20, 2ClPhe22, D-Glu24, αMeY25; acylated K17, K31 (groups as in name); C-terminal amide) | 89.7
YXEGTXTSDXSIXLDXKAQXEFIXXLIEGKPSSGAPPPS (Aib2, αMeF(2F)6, 4Pal10, αMeL13, Orn16, Aib20, D-Glu24, αMeY25; acylated K17, K30 (groups as in name); C-terminal amide) | 103
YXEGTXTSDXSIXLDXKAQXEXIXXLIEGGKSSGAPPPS (Aib2, αMeF(2F)6, 4Pal10, αMeL13, Orn16, Aib20, 3,5FPhe22, D-Glu24, αMeY25; acylated K17, K31 (groups as in name); C-terminal amide) | 104
